Measured glycan array binding signal (z-score) of individual entries
molecular target: GalNAc6S(b1-4)GlcNAc; test: glycan array binding signal (z-score within array); higher = stronger binding; conditions: glycan notation: IUPAC condensed, linker removed
Shown is part of a subset that was picked to be rich in the strongest signals.
VALUE_TYPE: glycan array binding signal (z-score)

[[record]]
binder = "Thrombomodulin (Mus musculus) (protein) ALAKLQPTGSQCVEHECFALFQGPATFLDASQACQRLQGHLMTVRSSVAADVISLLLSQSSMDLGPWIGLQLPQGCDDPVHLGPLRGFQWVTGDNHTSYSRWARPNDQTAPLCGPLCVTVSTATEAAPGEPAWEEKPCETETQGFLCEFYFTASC"
value_type = "glycan array binding signal (z-score)"
value = -0.071

[[record]]
binder = "KISKRILTGKK [NK11 (Sus scrofa)]"
value_type = "glycan array binding signal (z-score)"
value = 0.009

[[record]]
binder = "MGL1 (Mus musculus), P49300 (protein) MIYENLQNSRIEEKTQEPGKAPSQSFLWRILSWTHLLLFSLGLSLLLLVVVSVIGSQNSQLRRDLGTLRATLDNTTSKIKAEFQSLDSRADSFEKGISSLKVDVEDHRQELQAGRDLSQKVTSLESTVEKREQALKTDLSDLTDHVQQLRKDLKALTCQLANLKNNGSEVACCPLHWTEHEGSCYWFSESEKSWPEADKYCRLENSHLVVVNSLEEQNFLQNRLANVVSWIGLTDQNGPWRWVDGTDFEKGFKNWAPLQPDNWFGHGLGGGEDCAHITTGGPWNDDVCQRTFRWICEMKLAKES"
value_type = "glycan array binding signal (z-score)"
value = 0.509

[[record]]
binder = "AT1G73650(15) (Arabidopsis thaliana), F4HRY1 (protein) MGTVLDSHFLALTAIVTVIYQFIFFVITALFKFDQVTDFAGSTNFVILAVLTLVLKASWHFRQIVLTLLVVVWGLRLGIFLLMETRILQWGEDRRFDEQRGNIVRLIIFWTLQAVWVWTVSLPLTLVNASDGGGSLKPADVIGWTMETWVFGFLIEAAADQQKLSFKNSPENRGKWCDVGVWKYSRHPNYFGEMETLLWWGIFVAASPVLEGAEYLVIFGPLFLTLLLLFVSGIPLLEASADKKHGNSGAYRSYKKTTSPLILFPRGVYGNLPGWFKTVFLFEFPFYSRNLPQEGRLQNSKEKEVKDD"
value_type = "glycan array binding signal (z-score)"
value = 0.513

[[record]]
binder = "CGL (Crenomytilus grayanus), H2FH31 (protein) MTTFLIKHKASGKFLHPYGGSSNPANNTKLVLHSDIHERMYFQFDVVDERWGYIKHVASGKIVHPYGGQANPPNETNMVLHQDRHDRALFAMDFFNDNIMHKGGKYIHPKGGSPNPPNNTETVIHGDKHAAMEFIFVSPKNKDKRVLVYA"
value_type = "glycan array binding signal (z-score)"
value = -0.377

